Where do the numbers come from? From paper PMC5342262.

- tgt: BSEP (Homo sapiens)
- Sequence (O95342 whole entry): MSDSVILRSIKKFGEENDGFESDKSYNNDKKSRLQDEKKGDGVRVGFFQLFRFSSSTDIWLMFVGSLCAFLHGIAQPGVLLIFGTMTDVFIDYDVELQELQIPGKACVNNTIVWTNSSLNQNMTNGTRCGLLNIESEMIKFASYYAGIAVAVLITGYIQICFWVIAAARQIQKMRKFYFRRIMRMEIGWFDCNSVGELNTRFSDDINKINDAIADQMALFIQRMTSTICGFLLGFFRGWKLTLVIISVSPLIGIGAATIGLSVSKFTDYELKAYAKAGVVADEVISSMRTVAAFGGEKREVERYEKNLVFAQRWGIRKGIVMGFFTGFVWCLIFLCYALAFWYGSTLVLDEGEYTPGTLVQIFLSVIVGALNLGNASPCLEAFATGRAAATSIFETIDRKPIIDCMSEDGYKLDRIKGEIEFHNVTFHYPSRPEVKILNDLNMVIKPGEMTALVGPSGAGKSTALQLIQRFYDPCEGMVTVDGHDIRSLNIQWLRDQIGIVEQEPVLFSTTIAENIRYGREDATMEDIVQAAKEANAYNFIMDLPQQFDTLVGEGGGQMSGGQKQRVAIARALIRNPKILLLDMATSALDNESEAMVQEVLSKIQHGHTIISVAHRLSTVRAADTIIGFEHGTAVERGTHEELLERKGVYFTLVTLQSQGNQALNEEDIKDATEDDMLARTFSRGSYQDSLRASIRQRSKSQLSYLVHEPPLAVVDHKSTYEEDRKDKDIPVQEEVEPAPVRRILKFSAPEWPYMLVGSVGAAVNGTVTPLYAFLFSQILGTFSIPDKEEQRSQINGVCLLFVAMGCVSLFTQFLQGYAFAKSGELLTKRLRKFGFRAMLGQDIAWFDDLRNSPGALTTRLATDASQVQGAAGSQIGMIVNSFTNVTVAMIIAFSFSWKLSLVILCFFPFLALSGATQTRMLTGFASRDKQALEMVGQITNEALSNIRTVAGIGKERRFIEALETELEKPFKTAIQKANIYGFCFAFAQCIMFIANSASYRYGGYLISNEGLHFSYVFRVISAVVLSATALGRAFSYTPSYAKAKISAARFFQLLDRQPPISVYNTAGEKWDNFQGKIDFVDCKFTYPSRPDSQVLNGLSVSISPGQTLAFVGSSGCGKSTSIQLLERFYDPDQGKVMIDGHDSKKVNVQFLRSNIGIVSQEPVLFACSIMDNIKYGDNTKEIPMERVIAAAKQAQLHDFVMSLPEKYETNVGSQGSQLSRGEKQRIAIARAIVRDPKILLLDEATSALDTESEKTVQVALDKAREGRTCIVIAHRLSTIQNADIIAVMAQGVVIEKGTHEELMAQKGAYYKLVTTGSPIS
pIC50: −log10 of the molar value.

line.notation	tgt	pIC50
C[C@H](CCC(=O)O)[C@H]1CC[C@H]2[C@@H]3[C@H](O)C[C@@H]4C[C@@H](F)CC[C@]4(C)[C@H]3C[C@H](O)[C@]12C	BSEP (Homo sapiens)	3.60

----------
- run.description: Stability/metabolization of [^18F]FCA with primary mouse hepatocytes
- measurement.parameters: mouse

molecule	recovery at 5 min, 37 MBq/mL / %
C[C@H](CCC(=O)O)[C@H]1CC[C@H]2[C@@H]3[C@H](O)C[C@@H]4C[C@@H]([18F])CC[C@]4(C)[C@H]3C[C@H](O)[C@]12C [[^18F]FCA, 3β-[^18F]Fluorocholic Acid]	100

----------
- run.description: Stability of [^18F]FCA in mouse serum
- measurement.parameters: mouse

molecule	recovery at 5 min, 37 MBq/mL [%]
C[C@H](CCC(=O)O)[C@H]1CC[C@H]2[C@@H]3[C@H](O)C[C@@H]4C[C@@H]([18F])CC[C@]4(C)[C@H]3C[C@H](O)[C@]12C [[^18F]FCA, 3β-[^18F]Fluorocholic Acid]	100

----------
- run.description: Stability of [^18F]FCA in mouse serum
- measurement.parameters: mouse
endpoint: recovery at 30 min, 37 MBq/mL

compound	recorded.measurement
C[C@H](CCC(=O)O)[C@H]1CC[C@H]2[C@@H]3[C@H](O)C[C@@H]4C[C@@H]([18F])CC[C@]4(C)[C@H]3C[C@H](O)[C@]12C [[^18F]FCA, 3β-[^18F]Fluorocholic Acid]	100%

----------
- tgt: OATP1B1 (Homo sapiens, UniProt Q9Y6L6)
- Sequence (Q9Y6L6 whole entry): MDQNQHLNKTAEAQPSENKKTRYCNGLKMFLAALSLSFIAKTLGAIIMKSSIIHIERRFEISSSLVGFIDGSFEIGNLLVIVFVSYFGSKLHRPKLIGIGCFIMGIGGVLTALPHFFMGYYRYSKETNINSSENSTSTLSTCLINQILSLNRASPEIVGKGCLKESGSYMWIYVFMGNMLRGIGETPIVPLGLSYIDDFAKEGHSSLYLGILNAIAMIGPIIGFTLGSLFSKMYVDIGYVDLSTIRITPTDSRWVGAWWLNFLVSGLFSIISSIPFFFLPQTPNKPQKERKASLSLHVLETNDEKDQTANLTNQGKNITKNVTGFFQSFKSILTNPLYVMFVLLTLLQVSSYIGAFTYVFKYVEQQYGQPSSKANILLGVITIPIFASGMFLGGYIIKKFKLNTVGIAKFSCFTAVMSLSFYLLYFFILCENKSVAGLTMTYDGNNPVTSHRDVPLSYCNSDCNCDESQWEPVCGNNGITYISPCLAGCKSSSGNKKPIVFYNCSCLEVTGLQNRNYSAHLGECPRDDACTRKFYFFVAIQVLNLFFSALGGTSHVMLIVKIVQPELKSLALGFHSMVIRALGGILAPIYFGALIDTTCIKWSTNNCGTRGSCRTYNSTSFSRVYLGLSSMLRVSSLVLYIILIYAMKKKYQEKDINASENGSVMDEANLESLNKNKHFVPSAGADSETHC
- run.description: In vitro uptake assay with [^3H]EbG in HEK-OATP1B1 cells
- Method: Transport of 3β-fluorocholic acid by NTCP, OATP1B1 and OATP1B3 was assessed using stable transfected cell lines. […] Transport of FCA by the NTCP, OATP1B1 and OATP1B3 transporters was assessed by inhibition of the tritium labeled model substrates uptake. Cells were seeded in 24-well plates at 400,000 cells per well. […] IC50-values were calculated with Graphpad Prism v3.00 (Graphpad software).
pIC50: −log10 of the molar value.
endpoint: pIC50

line.notation	endpoint	recorded.measurement
C[C@H](CCC(=O)O)[C@H]1CC[C@H]2[C@@H]3[C@H](O)C[C@@H]4C[C@@H](F)CC[C@]4(C)[C@H]3C[C@H](O)[C@]12C	pIC50	4.98

----------
- run.description: LogD of [^18F]FCA in octanol/PBS pH 7.4
- Assay type: physicochemical
- measurement.parameters: octanol/PBS 50:50 v:v, n = 3
endpoint: logD

compound	recorded.measurement
C[C@H](CCC(=O)O)[C@H]1CC[C@H]2[C@@H]3[C@H](O)C[C@@H]4C[C@@H]([18F])CC[C@]4(C)[C@H]3C[C@H](O)[C@]12C [[^18F]FCA, 3β-[^18F]Fluorocholic Acid]	1.19

----------
- run.description: Stability/metabolization of [^18F]FCA with primary mouse hepatocytes
- measurement.parameters: mouse

molecule	recovery at 60 min, 37 MBq/mL, %
C[C@H](CCC(=O)O)[C@H]1CC[C@H]2[C@@H]3[C@H](O)C[C@@H]4C[C@@H]([18F])CC[C@]4(C)[C@H]3C[C@H](O)[C@]12C [[^18F]FCA, 3β-[^18F]Fluorocholic Acid]	100

----------
- tgt: UniProtKB Q14973
- Sequence (Q14973 whole entry): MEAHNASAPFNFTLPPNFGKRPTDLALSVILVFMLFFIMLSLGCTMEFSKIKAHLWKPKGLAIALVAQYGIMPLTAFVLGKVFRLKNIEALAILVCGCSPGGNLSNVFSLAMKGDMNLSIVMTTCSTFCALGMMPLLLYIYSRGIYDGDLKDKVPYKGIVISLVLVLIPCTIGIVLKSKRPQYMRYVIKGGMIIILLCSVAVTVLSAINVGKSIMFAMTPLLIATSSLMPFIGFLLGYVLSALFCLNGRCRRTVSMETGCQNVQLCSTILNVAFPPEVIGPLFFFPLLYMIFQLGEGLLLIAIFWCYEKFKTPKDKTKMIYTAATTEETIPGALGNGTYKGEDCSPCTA
- run.description: In vitro uptake assay with [^3H]TC in CHO-NTCP cells
endpoint: IC50

molecule	recorded.measurement
C[C@H](CCC(=O)O)[C@H]1CC[C@H]2[C@@H]3[C@H](O)C[C@@H]4C[C@@H](F)CC[C@]4(C)[C@H]3C[C@H](O)[C@]12C [FCA]	6.6 µM

----------
- run.description: Stability/metabolization of [^18F]FCA with primary mouse hepatocytes
- measurement.parameters: mouse
endpoint: recovery at 30 min, 37 MBq/mL (%)

compound	uom	recorded.measurement
C[C@H](CCC(=O)O)[C@H]1CC[C@H]2[C@@H]3[C@H](O)C[C@@H]4C[C@@H]([18F])CC[C@]4(C)[C@H]3C[C@H](O)[C@]12C [[^18F]FCA, 3β-[^18F]Fluorocholic Acid]	%	100
